- Test system: K4 kissing-loop RNA reporter;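 further: bound reporter read as fluorescence of individual clusters on recovered sequencing chips by microscopy, with normalized cluster intensities fitted with a binding model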
- experiment: apparent KD of K4 kissing-loop reporter; higher = weaker reporter binding
- setup-conditions: Eterna round: R107; input ligand: FMN 200 uM
metric-name: apparent KD of K4 kissing-loop reporter (nM)
Your answer should be a plain number; it is taken to be in nM.

Some sequences with recorded apparent KD of K4 kissing-loop reporter:
- sequence-chain: "AGGUCACCACUACAGUGAUGUUGUAGGGAGCAGGAUAUGCAGAAAUGCAGAAGGGCUCGCUCCCGGUGACCGAAUGAAACAUUCA [Omei KL FMN A SS A v6]"
  apparent KD of K4 kissing-loop reporter, nM: 432
- sequence-chain: "AAGGUAUCACCAACAUUGCAAGAAGGUGAUACCAGCAUCGAAAGAUGCCCUUGGCAGCACCAACUUGCAGUGAUGUUGCAAGUAA [(T)'-(H)'-(T1)-(T2)-(H1)-(H2)_Design8]"
  apparent KD of K4 kissing-loop reporter, nM: 274
- sequence-chain: "AGCAGUGAUGUUGCAUUUAUAAUGACCGAUACCAGUAUCGAUAGAUACCCUUGGCAGCGGAUUUCCGCAACGACUAGGAAACUAG [Ex Theophylline A K4 14]"
  apparent KD of K4 kissing-loop reporter, nM: 305
- sequence-chain: "AGUGCACUGUCAGGAUAUGUACAGUGAUGUUGUGUAUGUCAGCAAGUCAAAGACUUGCUCUUCUGUGCAGAAGGGACUGUGUACA [Omei KL FMN B Exc A v5]"
  apparent KD of K4 kissing-loop reporter, nM: 755

Exercise: // apparent KD of K4 kissing-loop reporter lookup, key: UGAUAAAGCAGUGAUGUUGCAAGUAAUGAUACCAGUUAAGAAGAGAACCCUUGGCAGCAUAAAGUGCGCUCUGAUGAGUGUGCUU [whbob_SS_Theo_A_w52]
Key: 96.7

Exercise: Also, AAAUAUUCGAGUGAUGUUCGUUAAAUUACAGAGGAUAUGCUUAAAAGCAGAAGGCUGUAUUUCUAUUUGUUAUGUAAUUUUAAAA [JR_ExcFMNA_Sub004] please.
Key: 117
